The binders listed here are annotated with their pKd.
Biological target: T1, recombinant canine Nerve Growth Factor (Canis lupus familiaris NGF) (canine (Canis lupus familiaris), UniProt Q29074 110-229 (pig entry), limits assumed)
T1 construct: also called canine NGF; Dog NGF
T1 chain: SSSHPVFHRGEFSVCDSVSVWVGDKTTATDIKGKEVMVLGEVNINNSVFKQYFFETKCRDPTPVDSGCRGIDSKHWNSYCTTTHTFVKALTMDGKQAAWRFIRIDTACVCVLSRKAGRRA
Test: SPR, Biacore T100, dog NGF; run 11/22
Please express pKd as -log10 of the molar concentration.

These recorded examples may help you get a feel for the data.
LTM construct 38 (HC Y100W, LC D28S, NH31HN, K92D) (antibody, V domains shown, Point mutant of canE3M65 as full IgG; Constant regions are not restated) VH: EVQLVESGGDLARPGGSLKLSCVVSGFSLIGYDINWVRQAPGKGLQWVTMIWGDGTTDYNSALKSRFTVSRDNAMNTVYLQMNSLRVEDTAVYYCARGGWYYGTSYYFDYWGQGTLVTVSS VL: DIVMTQTPLSLSVSPGETASISCRASQSISHNLNWFRQKPGQSPQRLIYYISRFHSGVPDRFSGSGSGTDFTLRISRVEADDTGVYYCQQSDTLPYTFGAGTKLEIK ... 8.67
LTM construct 32 (HC Y100W, LC D28S) (antibody, V domains shown, Point mutant of canE3M65, converted into full IgG and expressed in HEK293; The canine constant regions are not restated) VH: EVQLVESGGDLARPGGSLKLSCVVSGFSLIGYDINWVRQAPGKGLQWVTMIWGDGTTDYNSALKSRFTVSRDNAMNTVYLQMNSLRVEDTAVYYCARGGWYYGTSYYFDYWGQGTLVTVSS VL: DIVMTQTPLSLSVSPGETASISCRASQSISNHLNWFRQKPGQSPQRLIYYISRFHSGVPDRFSGSGSGTDFTLRISRVEADDTGVYYCQQSKTLPYTFGAGTKLEIK ... 8.65

Returns the measured pKd for the input binder. Input: LTM construct 34 (HC Y100W, LC D28S, H32N) (antibody, V domains shown, Point mutant of canE3M65 as full IgG; Constant regions are not restated) VH: EVQLVESGGDLARPGGSLKLSCVVSGFSLIGYDINWVRQAPGKGLQWVTMIWGDGTTDYNSALKSRFTVSRDNAMNTVYLQMNSLRVEDTAVYYCARGGWYYGTSYYFDYWGQGTLVTVSS VL: DIVMTQTPLSLSVSPGETASISCRASQSISNNLNWFRQKPGQSPQRLIYYISRFHSGVPDRFSGSGSGTDFTLRISRVEADDTGVYYCQQSKTLPYTFGAGTKLEIK
9.19
